Target sequence: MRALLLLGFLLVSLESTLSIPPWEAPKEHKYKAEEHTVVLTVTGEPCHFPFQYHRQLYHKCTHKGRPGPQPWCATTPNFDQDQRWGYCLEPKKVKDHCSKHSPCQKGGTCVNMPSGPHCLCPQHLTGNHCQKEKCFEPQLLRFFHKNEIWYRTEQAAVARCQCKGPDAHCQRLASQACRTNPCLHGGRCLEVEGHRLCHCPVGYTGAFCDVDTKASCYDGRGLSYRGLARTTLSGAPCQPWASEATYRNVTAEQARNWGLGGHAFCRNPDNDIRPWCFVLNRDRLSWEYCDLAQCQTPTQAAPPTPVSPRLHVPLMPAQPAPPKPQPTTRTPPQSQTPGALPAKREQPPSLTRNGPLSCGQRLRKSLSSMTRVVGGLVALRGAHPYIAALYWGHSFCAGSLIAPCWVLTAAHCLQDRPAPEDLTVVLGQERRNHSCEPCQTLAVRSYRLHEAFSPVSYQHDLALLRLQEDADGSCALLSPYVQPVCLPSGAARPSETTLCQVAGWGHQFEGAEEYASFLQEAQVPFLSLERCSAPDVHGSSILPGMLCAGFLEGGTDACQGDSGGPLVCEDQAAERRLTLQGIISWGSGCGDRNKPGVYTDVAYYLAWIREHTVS
property name: IC50

compound: N#Cc1cccc([C@@H](NCC2CC2)c2ccc(F)c(NC(=O)c3cc(C(F)(F)F)nn3-c3cccc(CN)c3)c2)c1 (stereo in doubt) [BEROTRALSTAT]
property name: IC50
value observed: > 50 µM

---

assay: Clearance in rat at 3 mg/kg, iv; type: ADME, organism-based; conditions: in vivo
property name: clearance (L/h/kg)

molecule: N#Cc1cccc([C@@H](NCC2CC2)c2ccc(F)c(NC(=O)c3cc(C(F)(F)F)nn3-c3cccc(CN)c3)c2)c1 (stereo in doubt)
value observed: 1.62

---

assay: Cmax in rat at 3 mg/kg, iv; format: ADME, organism-based; set-up: route intravenous, dose 3 mg/kg; conditions: in vivo
property name: Cmax (ng/mL)

compound: N#Cc1cccc([C@@H](NCC2CC2)c2ccc(F)c(NC(=O)c3cc(C(F)(F)F)nn3-c3cccc(CN)c3)c2)c1 (stereo in doubt) [BEROTRALSTAT]
value observed: 773

---

assay: Tmax in rat at 30 mg/kg, po; assay type: ADME, organism-based; details: in vivo

molecule: N#Cc1cccc([C@@H](NCC2CC2)c2ccc(F)c(NC(=O)c3cc(C(F)(F)F)nn3-c3cccc(CN)c3)c2)c1 (stereo in doubt)
Tmax [h]: 2

---

molecular target: Plasma kallikrein (Homo sapiens, UniProt P03952); assay: Inhibition of purified human plasma kallikrein using H-D-Pro-Phe-Arg-pNA.2HCl as substrate measured after 3 mins by microplate reader analysis
Sequence (P03952 20-390 limits assumed): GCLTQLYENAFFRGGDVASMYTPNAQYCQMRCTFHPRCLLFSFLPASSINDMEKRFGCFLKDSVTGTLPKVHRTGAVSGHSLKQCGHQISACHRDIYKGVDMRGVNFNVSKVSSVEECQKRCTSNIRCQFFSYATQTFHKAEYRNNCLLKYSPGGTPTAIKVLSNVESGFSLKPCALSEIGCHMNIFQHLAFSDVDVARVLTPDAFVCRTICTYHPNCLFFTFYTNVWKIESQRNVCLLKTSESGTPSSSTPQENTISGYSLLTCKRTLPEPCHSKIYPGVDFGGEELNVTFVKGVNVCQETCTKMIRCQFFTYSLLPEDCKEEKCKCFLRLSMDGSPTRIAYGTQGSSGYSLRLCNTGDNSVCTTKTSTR
Sequence (P03952 391-638 limits assumed): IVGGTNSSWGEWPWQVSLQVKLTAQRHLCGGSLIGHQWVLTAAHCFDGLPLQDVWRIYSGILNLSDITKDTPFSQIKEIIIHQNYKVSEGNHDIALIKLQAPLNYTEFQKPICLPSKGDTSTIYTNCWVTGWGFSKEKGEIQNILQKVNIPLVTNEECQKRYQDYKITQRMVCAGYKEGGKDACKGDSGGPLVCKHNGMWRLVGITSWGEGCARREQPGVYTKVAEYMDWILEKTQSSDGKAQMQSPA
With a cut-off of 0.2 µM, any IC50 strictly below it is called t; any IC50 meeting it or above is called f.

molecule: NCc1cccc(-n2nc(C(F)(F)F)cc2C(=O)Nc2cc(C(NCC3CC3)c3ccccn3)ccc2F)c1 (centres undefined)
cat: t
--
molecule: NCc1cccc(-n2nc(C(F)(F)F)cc2C(=O)O)c1
cat: f
--
molecule: NCc1cccc(-n2nc(C(F)(F)F)cc2C(=O)Nc2cc(C(NCC3CC3)c3ccncc3)ccc2F)c1 (centres undefined)
cat: t
--
molecule: CCOC(c1ccccc1)c1ccc(F)c(NC(=O)c2cc(C(F)(F)F)nn2-c2cccc(CN)c2)c1 (centres undefined)
cat: t
--
molecule: NCc1cccc(-n2nc(C(F)(F)F)cc2C(=O)Nc2cc(F)cc(C(OCC3CC3)c3ccccc3)c2)c1 (centres undefined)
cat: t
--
molecule: NCc1cccc(-n2ccc(C(F)(F)F)n2)c1
cat: f
--
molecule: NCc1cccc(-n2nc(C(F)(F)F)cc2C(=O)Nc2ccc(-c3ccc(S(N)(=O)=O)cc3)cc2F)c1
cat: f
--
molecule: NCc1cccc(-n2cccn2)c1
cat: f
--
molecule: COC(c1ccccc1)c1ccc(F)c(NC(=O)c2cc(C(F)(F)F)nn2-c2cccc(CN)c2)c1 (centres undefined)
cat: f

---

biological target: Plasma kallikrein (Homo sapiens, UniProt P03952); assay: Inhibition of purified human plasma kallikrein using H-D-Pro-Phe-Arg-pNA.2HCl as substrate measured after 3 mins by microplate reader analysis
IC50 values for the compounds below.

compound: NCc1cccc(-n2nc(C(F)(F)F)cc2C(=O)Nc2cccc(C(O)c3ccccc3)c2F)c1 (stereo unspecified)
target under test: Plasma kallikrein (Homo sapiens, UniProt P03952)
units text: nM
IC50: 149
//
compound: NCc1cccc(-n2nc(C(F)(F)F)cc2C(=O)Nc2cc(C(NCC3CC3)c3cccnc3)ccc2F)c1 (stereo unspecified)
target under test: Plasma kallikrein (Homo sapiens, UniProt P03952)
units text: nM
IC50: 10
//
compound: NCc1cccc(-n2nc(C(F)(F)F)cc2C(=O)Nc2ccccc2F)c1
target under test: Plasma kallikrein (Homo sapiens, UniProt P03952)
units text: nM
IC50: 27300
//
compound: NCc1cccc(-n2nc(C(F)(F)F)cc2C(=O)Nc2cc(C(O)c3ccccc3)ccc2F)c1 (stereo unspecified)
target under test: Plasma kallikrein (Homo sapiens, UniProt P03952)
units text: nM
IC50: 710
//
compound: CS(=O)(=O)c1cccc(-c2ccc(NC(=O)c3cc(C(F)(F)F)nn3-c3cccc(CN)c3)c(F)c2)c1
target under test: Plasma kallikrein (Homo sapiens, UniProt P03952)
units text: nM
IC50: 1230
//
compound: NCc1cccc(-n2nc(C(F)(F)F)cc2C(=O)Nc2ccc(C3CC3)cc2F)c1
target under test: Plasma kallikrein (Homo sapiens, UniProt P03952)
units text: nM
IC50: 577
//
compound: NCc1cccc(-n2nc(C(F)(F)F)cc2C(=O)Nc2ccc(-c3ccccc3)cc2F)c1
target under test: Plasma kallikrein (Homo sapiens, UniProt P03952)
units text: nM
IC50: 1020
//
compound: NCc1cccc(-n2nc(C(F)(F)F)cc2C(=O)Nc2ccc(-c3ccc(C(N)=O)cc3)cc2F)c1
target under test: Plasma kallikrein (Homo sapiens, UniProt P03952)
units text: nM
IC50: 395
//
compound: NCc1cccc(-n2nc(C(F)(F)F)cc2C(=O)Nc2ccc(-c3ccccc3)cc2)c1
target under test: Plasma kallikrein (Homo sapiens, UniProt P03952)
units text: nM
IC50: 2900
//
compound: N#Cc1ccc(C(NCC2CC2)c2ccc(F)c(NC(=O)c3cc(C(F)(F)F)nn3-c3cccc(CN)c3)c2)cc1 (stereo unspecified)
target under test: Plasma kallikrein (Homo sapiens, UniProt P03952)
units text: nM
IC50: 7.2
//
compound: NCc1cccc(-n2nc(C(F)(F)F)cc2C(=O)Nc2ccc(F)c(C(OCC3CC3)c3ccccc3)c2)c1 (stereo unspecified)
target under test: Plasma kallikrein (Homo sapiens, UniProt P03952)
units text: nM
IC50: 708
//
compound: NCc1cccc(-n2nc(C(F)(F)F)cc2C(=O)Nc2ccc(C(OCC3CC3)c3ccccc3)cc2F)c1 (stereo unspecified)
target under test: Plasma kallikrein (Homo sapiens, UniProt P03952)
units text: nM
IC50: 651
//
compound: NCc1cccc(-n2nc(C(F)(F)F)cc2C(=O)Nc2ccccc2)c1
target under test: Plasma kallikrein (Homo sapiens, UniProt P03952)
units text: nM
IC50: 22600
//
compound: NCc1cccc(-n2nc(C(F)(F)F)cc2C(=O)Nc2cccc(C(OCC3CC3)c3ccccc3)c2)c1 (stereo unspecified)
target under test: Plasma kallikrein (Homo sapiens, UniProt P03952)
units text: nM
IC50: 37.6
//
compound: NCc1cccc(-n2nc(C(F)(F)F)cc2C(=O)Nc2cccc(C(OCC3CC3)c3ccccc3)c2F)c1 (stereo unspecified)
target under test: Plasma kallikrein (Homo sapiens, UniProt P03952)
units text: nM
IC50: 37
//
compound: NCc1cccc(-n2nc(C(F)(F)F)cc2C(=O)Nc2ccc(C(O)c3ccccc3)cc2F)c1 (stereo unspecified)
target under test: Plasma kallikrein (Homo sapiens, UniProt P03952)
units text: nM
IC50: 1000

---

assay: AUC(0 to 24 hrs) in rat at 30 mg/kg, po; type: ADME, organism-based; parameters: time < 24 hr, route oral, dose 30 mg/kg; conditions: in vivo

compound: N#Cc1cccc([C@@H](NCC2CC2)c2ccc(F)c(NC(=O)c3cc(C(F)(F)F)nn3-c3cccc(CN)c3)c2)c1 (stereo in doubt) [BEROTRALSTAT]
units text: ng·h/mL
AUC(0-t) at 24 h: 4780

---

experiment: Plasma concentration in rat at 10 mg/kg, po after 24 hrs; assay type: ADME, organism-based
property name: concentration at 24 h

compound: NCc1cccc(-n2nc(C(F)(F)F)cc2C(=O)Nc2cc(C(NCC3CC3)c3ccccc3)ccc2F)c1 (single isomer, unassigned; (-))
value observed: 30 ng/mL

---

target: Plasma kallikrein (Homo sapiens, UniProt P03952); assay: Inhibition of endogenous human plasma kallikrein using Z-Phe-Arg-AMC.HCl as substrate measured after 5 mins by microplate reader analysis
pIC50: −log10 of the molar value.
pIC50 values for the compounds below.
property name: pIC50

compound: NCc1cccc(-n2nc(C(F)(F)F)cc2C(=O)Nc2cc(C(NCC3CC3)c3ccccn3)ccc2F)c1 (centres undefined)
target under test: Plasma kallikrein (Homo sapiens, UniProt P03952)
comparison operator: =
value observed: 7.57
--
compound: NCc1cccc(-n2nc(C(F)(F)F)cc2C(=O)Nc2ccc(F)c(C(OCC3CC3)c3ccccc3)c2)c1 (centres undefined)
target under test: Plasma kallikrein (Homo sapiens, UniProt P03952)
comparison operator: <
value observed: 6.00
--
compound: N#Cc1ccc(C(NCC2CC2)c2ccc(F)c(NC(=O)c3cc(C(F)(F)F)nn3-c3cccc(CN)c3)c2)cc1 (centres undefined)
target under test: Plasma kallikrein (Homo sapiens, UniProt P03952)
comparison operator: =
value observed: 7.72
--
compound: NCc1cccc(-n2nc(C(F)(F)F)cc2C(=O)Nc2cc(F)cc(C(OCC3CC3)c3ccccc3)c2)c1 (centres undefined)
target under test: Plasma kallikrein (Homo sapiens, UniProt P03952)
comparison operator: <
value observed: 6.00
